Data origin: PubChem BioAssay (NCI)

Assay: NCI Yeast Anticancer Drug Screen. Data for the cln2 rad14 strain (AID 165);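 note: 0% = growth equal to vehicle treated cultures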
Conditions: S. cerevisiae cln2 rad14 strain, at 50.0 µM, hits give high values
Compounds without any hit were thinned out: in the full panel of roughly 79,000, 15% have a hit.
parameter: growth inhibition (%)
Reply numerically in %, unit not repeated.

>>> print(df.to_string())
                         compound          parameter  measured_number
0  CCNc1nc2c(=O)n(C)c(=O)n(C)c2s1  growth inhibition             -6.2

input: Query (compound): CC(=O)N1CC(C)(C)c2c(C)c(O)c(C)c(C)c21 ; field requested: growth inhibition
output: 17.1

input: Query (compound): Oc1cccnc1CN1CCOCC1 ; field requested: growth inhibition
output: 8.8

input: Query (compound): CCC1(C#N)OC1C (configuration not stated) ; field requested: growth inhibition
output: 10.8

---

# reported growth inhibition; entries follow
Test: NCI Yeast Anticancer Drug Screen. Data for the rad50 strain (AID 155);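 note: 0% = growth of vehicle-only cultures of the same strain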
Conditions: S. cerevisiae rad50 strain growth inhibition; at 50.0 µM; hits give high values
Compounds without any hit were thinned out: in the full panel of roughly 79,000, 15% have a hit.
Reply numerically in %, unit not repeated.

input: Query (molecule): C=C1C(=O)OC2C=C(C)C3C(OC(=O)c4ccccc4)CC(C)(O)C3CC12 (stereo unspecified) ; field requested: growth inhibition
output: 1.4

input: Query (molecule): O=[N+]([O-])c1ccc(Oc2ccc3ccccc3c2)c([N+](=O)[O-])c1 ; field requested: growth inhibition
output: -1.4

input: Query (molecule): Cc1[nH]n(-c2ccccc2)c(=O)c1/C=N\C(N)=S ; field requested: growth inhibition
output: -37

input: Query (molecule): N#Cc1c[nH]n2ccnc12 ; field requested: growth inhibition
output: -16.7

input: Query (molecule): Cc1nc(Cl)nc2c1C(=O)Nc1ccccc1N2 ; field requested: growth inhibition
output: 27.2

input: Query (molecule): O=C(/C=C/c1ccccc1)Cc1nc2nnc(NC(=O)Nc3ccc(Cl)cc3)n2[nH]c1=O ; field requested: growth inhibition
output: -9.15

---

# reported growth inhibition; entries follow
Assay: NCI Yeast Anticancer Drug Screen. Data for the mec2-1 strain (AID 157)
Details: S. cerevisiae mec2-1 strain, at 50.0 µM, hits give high values
This is part of a sample that, as a whole, favours compounds with a hit. Of some 79,000 tested, about 15% had one in any assay.
Reply numerically in %, unit not repeated.

input: Query (molecule): CC1=C(C(=O)OCCc2ccc([N+](=O)[O-])cc2)C(c2cccc([N+](=O)[O-])c2)C(C(=O)OC(C)C)=C(C)N1 (stereo not drawn) ; field requested: growth inhibition
output: -6.95

input: Query (molecule): CC(C)CCOC(=O)c1ccc(C(C)C)cc1 ; field requested: growth inhibition
output: 9.85

input: Query (molecule): NCCSCCC(=O)O ; field requested: growth inhibition
output: -12.1

input: Query (molecule): CN(C(=O)/C=C/c1ccccc1)c1ccccc1 ; field requested: growth inhibition
output: 13.4

input: Query (molecule): Nc1nc(N)nc(-c2cc(Br)ccc2N)n1 ; field requested: growth inhibition
output: -0.3

input: Query (molecule): O=C(NN1C(=O)CS(=O)(=O)C1c1ccccc1F)c1ccncc1 (stereo not drawn) ; field requested: growth inhibition
output: -4.4

input: Query (molecule): CC1CCCN2C(=O)CN(Cc3ccccc3)CC(=O)N12 (stereo not drawn) ; field requested: growth inhibition
output: -3.3

---

Experiment: NCI Yeast Anticancer Drug Screen. Data for the bub3 strain (AID 167)
Settings: S. cerevisiae bub3 mutant strain, at 50.0 µM, hits give high values
The panel holds about 79,000 compounds, 15% with a hit somewhere; the sample as a whole holds those more often.
parameter: growth inhibition (%)
Reply numerically in %, unit not repeated.

input: Query (molecule): COc1ccc(CCO)cc1 ; field requested: growth inhibition
output: -31.1

input: Query (molecule): COC(=O)c1c2c(C)ccc(C)c2nc2c(C)ccc(C)c12 ; field requested: growth inhibition
output: 22.7

input: Query (molecule): O=C(c1ccc(Cl)cc1)c1cc([N+](=O)[O-])cc([N+](=O)[O-])c1 ; field requested: growth inhibition
output: 22.8

input: Query (molecule): O=C(Nc1ccccc1)OCC(CN1CCCCC1)OC(=O)Nc1ccccc1 (configuration not stated) ; field requested: growth inhibition
output: -23.8

input: Query (molecule): O=C1CSC(=S)N1N1C(=O)CSC1=S ; field requested: growth inhibition
output: 5.55

---

Experiment: NCI Yeast Anticancer Drug Screen. Data for the sgs1 mgt1 strain (AID 161);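 note: 0% = growth of cultures given vehicle only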
Conditions: S. cerevisiae sgs1 mgt1 strain, at 50.0 µM
About 79,000 compounds went through this panel and 15% of them were active in at least one assay; those are over-represented in the sample as a whole. Activity calls are given as the source filed them. No stated cut-off is given here; in the data, active means growth inhibition above about 70%; inactive means the rest.
Mark one answer only. Choices: class 1 = active, class 0 = inactive

Examples with answers:
molecule	class label
Fc1ccc2nncc(/C=C/c3ccccc3F)c2c1	class 0
Cc1[nH]n(-c2ccccc2)c(=O)c1/C=N\C(N)=S	class 0
CCN1C(=O)C(=O)C(CC)(CC)C1=O	class 0
CC(O)CC(=O)c1ccc(O)cc1 (centres undefined)	class 0
Cc1ccc(S(=O)(=O)OCCN(CCO)c2cn(C(c3ccccc3)(c3ccccc3)c3ccccc3)c(=O)n(C(c3ccccc3)(c3ccccc3)c3ccccc3)c2=O)cc1	class 0

input: Outcome logged for CC(NC(=O)CCl)c1ccccc1 (centres undefined) in this assay:
output: class 0

input: Outcome logged for CC(C)(C(=O)c1cccnc1)c1cccnc1 in this assay:
output: class 0

input: Outcome logged for CC1[C@@H]2CC=C3[C@H]4CCC5Cc6nc7c(nc6C[C@@]5(C)C4CC(=O)[C@]32CO[C@]12OC(C)(C)CC2O)CC1CC[C@@H]2C3=C[C@H]4O[C@@]5(O[C@@](C)(CO)C[C@@H]5O)C(C)[C@@]4(O)[C@]3(C)[C@@H](O)CC2[C@]1(C)C7 (some centres undefined) in this assay:
output: class 1

input: Outcome logged for O=C1C=CC[C@H](/C=C/c2ccccc2)O1 in this assay:
output: class 0

---

# reported growth inhibition; entries follow
Test: NCI Yeast Anticancer Drug Screen. Data for the cln2 rad14 strain (AID 165);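 note: 0% = growth equal to vehicle treated cultures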
Settings: S. cerevisiae cln2 rad14 strain, at 50.0 µM, hits give high values
Procedure: Growth inhibition of yeast strains with defined genetic alterations is measured as a screen for potential anti-cancer activity. Selected strains with alterations in DNA damage repair or cell cycle control were exposed to compounds and growth inhibition was measured relative to vehicle treated controls. The strain used in this assay is cln2 rad14
This is part of a sample that, as a whole, favours compounds with a hit. Of some 79,000 tested, about 15% had one in any assay.
Reply numerically in %, unit not repeated.

                                item_smiles          parameter  unit_string  measured_number
0             CS(=O)(=O)Oc1ccc2cc(Br)ccc2c1  growth inhibition            %             4.25
1     CC(=O)n1[nH]c(=O)n(-c2ccc(Cl)cc2)c1=O  growth inhibition            %              2.1
2   COc1ccc(Cc2c[nH]c3cc(OC)c(OC)cc23)cc1OC  growth inhibition            %            -57.8
3      CCOC(=O)N1c2ccccc2S(=O)(=O)c2ccccc21  growth inhibition            %            -16.1
4      CCCCNC(=O)OCCN=c1c2ccccc2ccc2ccccc12  growth inhibition            %              2.8
5  Cc1ccc(C(=O)NCCN2CCCC2)c([N+](=O)[O-])c1OCc1ccccc1  growth inhibition            %            -22.9
6  CC(=O)Oc1cc2c(cc1OC(C)=O)C1(C)CCC2(C)c2cc(OC(C)=O)c(OC(C)=O)cc21  growth inhibition            %             9.55
7  COc1ccc2[nH]cc(CN3CCC(CO)(c4ccccc4)CC3)c2c1  growth inhibition            %              6.9
8           Cc1cccc(Cl)c1NC(=O)N(C)c1ccccc1  growth inhibition            %             23.4
9             C=CS(=O)(=O)CCOc1ccc(Cl)cc1Cl  growth inhibition            %             97.8

input: Query (molecule): C[Si](C)(C)c1ccc(-c2ccccc2)cc1 ; field requested: growth inhibition
output: -61.7

input: Query (molecule): C=CCOC(=O)CC ; field requested: growth inhibition
output: -6.05

---

Assay: NCI Yeast Anticancer Drug Screen. Data for the sgs1 mgt1 strain (AID 161);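 note: 0% = growth of cultures given vehicle only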
Conditions: S. cerevisiae sgs1 mgt1 strain, at 50.0 µM, hits give high values
Compounds without any hit were thinned out: in the full panel of roughly 79,000, 15% have a hit.
parameter: growth inhibition (%)
Reply numerically in %, unit not repeated.

Answered cases to consult:
In [3]: df
Out[3]:
                                   compound  measured_number
0  C=C1C(=O)O[C@@H]2[C@H]1CC[C@H](C)[C@@H]1CCC(=O)[C@@]21C             3.35
1  CCOC(=O)CCC(NC(=O)c1ccc([N+](=O)[O-])cc1)C(=O)OCC (configuration not stated)             -7.3
2       O=C1OCC(c2ccccc2)(c2ccccc2)C(=O)N1O             3.95
3                             Nc1cccc(Br)n1             0.45
4                  S=c1[nH]ncn2nc3ccccc3c12            -2.25

input: Query (compound): COc1cc(C2c3cc4c(cc3C(OC(=O)C[n+]3ccccc3)C3COC(=O)C23)OCO4)cc(OC)c1OC (configuration not stated) ; field requested: growth inhibition
output: 1.7

input: Query (compound): NOCCCCON ; field requested: growth inhibition
output: 8.95

input: Query (compound): CCOc1ccc(/C=C\C(=O)O)cc1 ; field requested: growth inhibition
output: 8.5

input: Query (compound): CN(C)/N=C1/CCCCC1C(O)(c1ccccc1)c1ccccc1 (configuration not stated) ; field requested: growth inhibition
output: -15.4

input: Query (compound): NC(=O)C1C=CN(Cc2ccccc2)C=C1 ; field requested: growth inhibition
output: -0.65

input: Query (compound): CCCCCCCCCCCCCCCC(=O)CCCCCCCCCCCCCCC ; field requested: growth inhibition
output: 6.35

input: Query (compound): CC(=O)/C=c1\[nH]/c(=C\C=C\c2ccccc2)c(=O)n1/C=C1\C(=O)Oc2ccccc2C1=O ; field requested: growth inhibition
output: 4.6
